Molecular target: Mushroom tyrosinase (Agaricus bisporus)
Sequence (G1K3P4 entry or part of it): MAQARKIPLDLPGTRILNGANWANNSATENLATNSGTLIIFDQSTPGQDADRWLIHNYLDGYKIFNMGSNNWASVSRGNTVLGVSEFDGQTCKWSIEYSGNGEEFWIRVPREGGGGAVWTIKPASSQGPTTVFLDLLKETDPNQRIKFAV
Sequence (C7FF04 1-392): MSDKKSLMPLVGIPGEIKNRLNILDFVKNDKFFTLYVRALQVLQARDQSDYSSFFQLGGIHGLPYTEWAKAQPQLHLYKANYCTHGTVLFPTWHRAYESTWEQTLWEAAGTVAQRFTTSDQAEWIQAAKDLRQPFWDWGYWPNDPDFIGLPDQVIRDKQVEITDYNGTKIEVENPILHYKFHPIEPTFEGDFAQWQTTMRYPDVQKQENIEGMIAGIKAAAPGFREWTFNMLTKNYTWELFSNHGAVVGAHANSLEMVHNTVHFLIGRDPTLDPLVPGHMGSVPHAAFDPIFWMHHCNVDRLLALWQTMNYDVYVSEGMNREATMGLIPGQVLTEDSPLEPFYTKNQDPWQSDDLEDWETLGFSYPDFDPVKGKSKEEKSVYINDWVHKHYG
Assay: Kinetic analysis of tyrosinase inhibition, diphenolase activity (Lineweaver-Burk plots)
Assay type: biochemical
Conditions: L-DOPA 0-200 μM, samples 20-1000 μM

molecule: O=C1c2c(O)cc(O)cc2O[C@H](c2ccc(O)cc2)[C@H]1O [(+)-Dihydrokaempferol (4), (+)-dihydrokaempferol]
Type of inhibition, diphenolase activity: competitive

molecule: O=C1CC(c2ccccc2)Oc2ccc(O)cc21 (stereo not shown) [6-Hydroxyflavanone (3), 6-hydroxyflavanone]
Type of inhibition, diphenolase activity: competitive

----------
Molecular target: Mushroom tyrosinase (Agaricus bisporus)
Test: Kinetic analysis of tyrosinase inhibition, monophenolase activity (Lineweaver-Burk plots)
Type: biochemical
Details: L-tyrosine 0-200 μM, samples 20-1000 μM
Method: The kinetic analysis of tyrosinase inhibitory activity was performed with respect to both monophenolase and diphenolase activities. The concentration ranges of the samples were 20–1000 μM. Both L-tyrosine and L-DOPA were concentrated at 0, 25, 50, 100, and 200 μM, respectively. The inhibitory kinetics of the samples were analyzed using Lineweaver–Burk plots.
measure name: Type of inhibition, monophenolase activity

compound: CC1(C)CC[C@]2(C)CC=C3[C@]4(C)CC[C@H]5C(C)(C)[C@@H](O)CC[C@]5(C)[C@H]4CC[C@@]3(C)[C@@H]2C1
readout value: noncompetitive
--
compound: C=C(C)[C@@H]1CC[C@]2(C)CC[C@]3(C)C(CCC4[C@@]5(C)CCC(OC(C)=O)C(C)(C)C5CC[C@]43C)C12 (stereo partly shown) [Lupeol acetate (8), lupeol acetate]
readout value: mixed
--
compound: O=C1c2c(O)cc(O)cc2O[C@H](c2ccc(O)cc2)[C@H]1O [(+)-Dihydrokaempferol (4), (+)-dihydrokaempferol]
readout value: competitive
--
compound: CC1(C)CC[C@]2(C)CC=C3[C@]4(C)CC[C@H]5C(C)(C)C(=O)CC[C@]5(C)[C@H]4CC[C@@]3(C)[C@@H]2C1
readout value: mixed
--
compound: CO[C@H]1CC[C@@]2(C)C(CC[C@@]3(C)C4=CC[C@]5(C)CCC(C)(C)CC5[C@@]4(C)CCC23)C1(C)C (stereo partly shown)
readout value: noncompetitive

Problem: What measured Type of inhibition, monophenolase activity goes with O=C1CC(c2ccccc2)Oc2ccc(O)cc21 (stereo not shown) [6-Hydroxyflavanone (3), 6-hydroxyflavanone] ?
Result: competitive

Problem: What measured Type of inhibition, monophenolase activity goes with O=C(O)c1ccc(O)c(O)c1 [3,4-Dihydroxybenzoic acid (5), 3,4-dihydroxybenzoic acid] ?
Result: competitive

----------
System: KATO-III gastric carcinoma cell line
Assay: MTT cytotoxicity assay, KATO-III
Assay type: cell-based
Conditions: Homo sapiens, 72 h
Each entry below carries its reported IC50.
Numeric answer only, unit µM assumed.

Recorded IC50, per entry:
compound: O=C1c2c(O)cc(O)cc2O[C@H](c2ccc(O)cc2)[C@H]1O [(+)-Dihydrokaempferol (4), (+)-dihydrokaempferol]
measurement target: KATO-III gastric carcinoma cell line
IC50, µM: 39.8

compound: O=C1CC(c2ccccc2)Oc2ccc(O)cc21 (centres unmarked) [6-Hydroxyflavanone (3), 6-hydroxyflavanone]
measurement target: KATO-III gastric carcinoma cell line
IC50, µM: 88.8

compound: O=C(O)c1ccc(O)c(O)c1 [3,4-Dihydroxybenzoic acid (5), 3,4-dihydroxybenzoic acid]
measurement target: KATO-III gastric carcinoma cell line
IC50, µM: 508

Here is another compound to look at.
Problem: What measured IC50 goes with CC1(C)CC[C@]2(C)CC=C3[C@]4(C)CC[C@H]5C(C)(C)C(=O)CC[C@]5(C)[C@H]4CC[C@@]3(C)[C@@H]2C1 ?
Result: 26.5
